Data credit: patent US20220017615A1

# study-target: T1, His-tagged CD47 recombinant protein, CD47-His (human, UniProt Q08722 19-141, limits assumed)
# T1 construct: it is not restated for CD47-His; also called human CD47-His protein; antigen CD47-His; not shown: His tag
# assay-info: ELISA on coated CD47-His; Ab 2.667 nM
Below: a set of entries, each annotated with reported OD450 nm.
Reply briefly: the number, and no unit.

{"binder": "20H4G5 (antibody, V domains shown, Murine hybridoma antibody purified on protein G) VH: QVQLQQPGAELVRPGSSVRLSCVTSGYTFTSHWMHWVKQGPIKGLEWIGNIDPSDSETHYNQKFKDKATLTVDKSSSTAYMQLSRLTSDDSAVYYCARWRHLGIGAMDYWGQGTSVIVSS VL: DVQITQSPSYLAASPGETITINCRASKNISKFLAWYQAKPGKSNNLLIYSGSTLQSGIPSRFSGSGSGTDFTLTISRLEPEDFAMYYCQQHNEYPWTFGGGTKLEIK", "OD450 nm": 3.01}

Pending binder:
Field request: OD450 nm | item: 4D10B11 (antibody, V domains shown, Murine hybridoma antibody purified on protein G) VH: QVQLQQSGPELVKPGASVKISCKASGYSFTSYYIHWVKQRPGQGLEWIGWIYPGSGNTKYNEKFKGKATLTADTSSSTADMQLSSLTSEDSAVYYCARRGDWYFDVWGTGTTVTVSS VL: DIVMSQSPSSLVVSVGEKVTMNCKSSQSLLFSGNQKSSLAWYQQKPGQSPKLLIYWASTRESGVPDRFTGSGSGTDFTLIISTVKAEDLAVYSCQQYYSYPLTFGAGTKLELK 3.03
